Entries and their activity coefficient
- methodNotes: activity coefficient (dimensionless); of the first substance listed, at infinite dilution; xn = mol fraction of the nth substance listed
- studyConditions: 343 K; 87.4 kPa; Liquid; Chromatography; x1 = 0
resultType: activity coefficient

{"columns": ["compound", "resultType", "experimentalValue"],
 "data": [
  ["C1COCCO1 [1,4-dioxane] + O=S(=O)([N-]S(=O)(=O)C(F)(F)F)C(F)(F)F.O=S(=O)([N-]S(=O)(=O)C(F)(F)F)C(F)(F)F.c1ccc2cc(C[N+]3(CCCCCCCCC[N+]4(Cc5ccc6ccccc6c5)CCCC4)CCCC3)ccc2c1", "activity coefficient", 0.451],
  ["Cc1ccccc1C [1,2-dimethylbenzene] + O=S(=O)([N-]S(=O)(=O)C(F)(F)F)C(F)(F)F.O=S(=O)([N-]S(=O)(=O)C(F)(F)F)C(F)(F)F.c1ccc2cc(C[N+]3(CCCCCCCCC[N+]4(Cc5ccc6ccccc6c5)CCCC4)CCCC3)ccc2c1", "activity coefficient", 0.894],
  ["O=C1CCCCC1 [cyclohexanone] + O=S(=O)([N-]S(=O)(=O)C(F)(F)F)C(F)(F)F.O=S(=O)([N-]S(=O)(=O)C(F)(F)F)C(F)(F)F.c1ccc2cc(C[N+]3(CCCCCCCCC[N+]4(Cc5ccc6ccccc6c5)CCCC4)CCCC3)ccc2c1", "activity coefficient", 1],
  ["CCOC(C)=O [ethyl acetate] + O=S(=O)([N-]S(=O)(=O)C(F)(F)F)C(F)(F)F.O=S(=O)([N-]S(=O)(=O)C(F)(F)F)C(F)(F)F.c1ccc2cc(C[N+]3(CCCCCCCCC[N+]4(Cc5ccc6ccccc6c5)CCCC4)CCCC3)ccc2c1", "activity coefficient", 0.628]
]}

###

- methodNotes: activity coefficient (dimensionless); of the first substance listed, at infinite dilution; xn = mol fraction of the nth substance listed
- studyConditions: 313 K; 87.4 kPa; Liquid; Chromatography; x1 = 0

{"columns": ["compound", "activity coefficient"],
 "data": [
  ["Cc1cccc(C)c1 [1,3-dimethylbenzene] + O=S(=O)([N-]S(=O)(=O)C(F)(F)F)C(F)(F)F.O=S(=O)([N-]S(=O)(=O)C(F)(F)F)C(F)(F)F.c1ccc2cc(C[N+]3(CCCCCCCCC[N+]4(Cc5ccc6ccccc6c5)CCCC4)CCCC3)ccc2c1", 0.857],
  ["CCO [ethanol] + O=S(=O)([N-]S(=O)(=O)C(F)(F)F)C(F)(F)F.O=S(=O)([N-]S(=O)(=O)C(F)(F)F)C(F)(F)F.c1ccc2cc(C[N+]3(CCCCCCCCC[N+]4(Cc5ccc6ccccc6c5)CCCC4)CCCC3)ccc2c1", 1]
]}

###

- methodNotes: activity coefficient (dimensionless); of the first substance listed, at infinite dilution; xn = mol fraction of the nth substance listed
- studyConditions: 313 K; 87.4 kPa; Liquid; Chromatography; x1 = 0
Consider the following molecules and their measured activity coefficient readings.

{"columns": ["molecule", "activity coefficient"],
 "data": [
  ["Cc1ccccc1C [1,2-dimethylbenzene] + O=S(=O)([N-]S(=O)(=O)C(F)(F)F)C(F)(F)F.O=S(=O)([N-]S(=O)(=O)C(F)(F)F)C(F)(F)F.c1ccc2cc(C[N+]3(CCCCCCCCC[N+]4(Cc5ccc6ccccc6c5)CCCC4)CCCC3)ccc2c1", 0.84],
  ["Cc1ccccc1 [toluene] + O=S(=O)([N-]S(=O)(=O)C(F)(F)F)C(F)(F)F.O=S(=O)([N-]S(=O)(=O)C(F)(F)F)C(F)(F)F.c1ccc2cc(C[N+]3(CCCCCCCCC[N+]4(Cc5ccc6ccccc6c5)CCCC4)CCCC3)ccc2c1", 0.714]
]}

###

- methodNotes: activity coefficient (dimensionless); of the first substance listed, at infinite dilution; xn = mol fraction of the nth substance listed
- studyConditions: 323 K; 87.4 kPa; Liquid; Chromatography; x1 = 0
resultType: activity coefficient

{"columns": ["molecule", "experimentalValue"],
 "data": [
  ["Cc1cccc(C)c1 [1,3-dimethylbenzene] + O=S(=O)([N-]S(=O)(=O)C(F)(F)F)C(F)(F)F.O=S(=O)([N-]S(=O)(=O)C(F)(F)F)C(F)(F)F.c1ccc2cc(C[N+]3(CCCCCCCCC[N+]4(Cc5ccc6ccccc6c5)CCCC4)CCCC3)ccc2c1", 0.924],
  ["CCCCCCCC [octane] + O=S(=O)([N-]S(=O)(=O)C(F)(F)F)C(F)(F)F.O=S(=O)([N-]S(=O)(=O)C(F)(F)F)C(F)(F)F.c1ccc2cc(C[N+]3(CCCCCCCCC[N+]4(Cc5ccc6ccccc6c5)CCCC4)CCCC3)ccc2c1", 7.57],
  ["C1CCCCC1 [cyclohexane] + O=S(=O)([N-]S(=O)(=O)C(F)(F)F)C(F)(F)F.O=S(=O)([N-]S(=O)(=O)C(F)(F)F)C(F)(F)F.c1ccc2cc(C[N+]3(CCCCCCCCC[N+]4(Cc5ccc6ccccc6c5)CCCC4)CCCC3)ccc2c1", 3.35],
  ["CCCC=O [butanal] + O=S(=O)([N-]S(=O)(=O)C(F)(F)F)C(F)(F)F.O=S(=O)([N-]S(=O)(=O)C(F)(F)F)C(F)(F)F.c1ccc2cc(C[N+]3(CCCCCCCCC[N+]4(Cc5ccc6ccccc6c5)CCCC4)CCCC3)ccc2c1", 0.464],
  ["CCCC(C)=O [pentan-2-one] + O=S(=O)([N-]S(=O)(=O)C(F)(F)F)C(F)(F)F.O=S(=O)([N-]S(=O)(=O)C(F)(F)F)C(F)(F)F.c1ccc2cc(C[N+]3(CCCCCCCCC[N+]4(Cc5ccc6ccccc6c5)CCCC4)CCCC3)ccc2c1", 0.437]
]}

###

- methodNotes: activity coefficient (dimensionless); of the first substance listed, at infinite dilution; xn = mol fraction of the nth substance listed
- studyConditions: 333 K; 87.4 kPa; Liquid; Chromatography; x1 = 0
Class rule met: activity coefficient at least 0.7. Class rule not met: activity coefficient below 0.7.

{"columns": ["molecule", "classAssignment"],
 "data": [
  ["CC#N [acetonitrile] + O=S(=O)([N-]S(=O)(=O)C(F)(F)F)C(F)(F)F.O=S(=O)([N-]S(=O)(=O)C(F)(F)F)C(F)(F)F.c1ccc2cc(C[N+]3(CCCCCCCCC[N+]4(Cc5ccc6ccccc6c5)CCCC4)CCCC3)ccc2c1", "rule not met"],
  ["O=C1CCCCC1 [cyclohexanone] + O=S(=O)([N-]S(=O)(=O)C(F)(F)F)C(F)(F)F.O=S(=O)([N-]S(=O)(=O)C(F)(F)F)C(F)(F)F.c1ccc2cc(C[N+]3(CCCCCCCCC[N+]4(Cc5ccc6ccccc6c5)CCCC4)CCCC3)ccc2c1", "rule met"],
  ["CCCO [propan-1-ol] + O=S(=O)([N-]S(=O)(=O)C(F)(F)F)C(F)(F)F.O=S(=O)([N-]S(=O)(=O)C(F)(F)F)C(F)(F)F.c1ccc2cc(C[N+]3(CCCCCCCCC[N+]4(Cc5ccc6ccccc6c5)CCCC4)CCCC3)ccc2c1", "rule met"],
  ["ClCCCl [1,2-dichloroethane] + O=S(=O)([N-]S(=O)(=O)C(F)(F)F)C(F)(F)F.O=S(=O)([N-]S(=O)(=O)C(F)(F)F)C(F)(F)F.c1ccc2cc(C[N+]3(CCCCCCCCC[N+]4(Cc5ccc6ccccc6c5)CCCC4)CCCC3)ccc2c1", "rule not met"],
  ["c1ccccc1 [benzene] + O=S(=O)([N-]S(=O)(=O)C(F)(F)F)C(F)(F)F.O=S(=O)([N-]S(=O)(=O)C(F)(F)F)C(F)(F)F.c1ccc2cc(C[N+]3(CCCCCCCCC[N+]4(Cc5ccc6ccccc6c5)CCCC4)CCCC3)ccc2c1", "rule not met"],
  ["CCCC=O [butanal] + O=S(=O)([N-]S(=O)(=O)C(F)(F)F)C(F)(F)F.O=S(=O)([N-]S(=O)(=O)C(F)(F)F)C(F)(F)F.c1ccc2cc(C[N+]3(CCCCCCCCC[N+]4(Cc5ccc6ccccc6c5)CCCC4)CCCC3)ccc2c1", "rule not met"],
  ["O=C1CCCC1 [cyclopentanone] + O=S(=O)([N-]S(=O)(=O)C(F)(F)F)C(F)(F)F.O=S(=O)([N-]S(=O)(=O)C(F)(F)F)C(F)(F)F.c1ccc2cc(C[N+]3(CCCCCCCCC[N+]4(Cc5ccc6ccccc6c5)CCCC4)CCCC3)ccc2c1", "rule not met"],
  ["CC(C)O [propan-2-ol] + O=S(=O)([N-]S(=O)(=O)C(F)(F)F)C(F)(F)F.O=S(=O)([N-]S(=O)(=O)C(F)(F)F)C(F)(F)F.c1ccc2cc(C[N+]3(CCCCCCCCC[N+]4(Cc5ccc6ccccc6c5)CCCC4)CCCC3)ccc2c1", "rule met"],
  ["CCO [ethanol] + O=S(=O)([N-]S(=O)(=O)C(F)(F)F)C(F)(F)F.O=S(=O)([N-]S(=O)(=O)C(F)(F)F)C(F)(F)F.c1ccc2cc(C[N+]3(CCCCCCCCC[N+]4(Cc5ccc6ccccc6c5)CCCC4)CCCC3)ccc2c1", "rule met"],
  ["Cc1ccc(C)cc1 [1,4-dimethylbenzene] + O=S(=O)([N-]S(=O)(=O)C(F)(F)F)C(F)(F)F.O=S(=O)([N-]S(=O)(=O)C(F)(F)F)C(F)(F)F.c1ccc2cc(C[N+]3(CCCCCCCCC[N+]4(Cc5ccc6ccccc6c5)CCCC4)CCCC3)ccc2c1", "rule met"],
  ["O=Cc1ccccc1 [benzaldehyde] + O=S(=O)([N-]S(=O)(=O)C(F)(F)F)C(F)(F)F.O=S(=O)([N-]S(=O)(=O)C(F)(F)F)C(F)(F)F.c1ccc2cc(C[N+]3(CCCCCCCCC[N+]4(Cc5ccc6ccccc6c5)CCCC4)CCCC3)ccc2c1", "rule met"],
  ["c1ccncc1 [pyridine] + O=S(=O)([N-]S(=O)(=O)C(F)(F)F)C(F)(F)F.O=S(=O)([N-]S(=O)(=O)C(F)(F)F)C(F)(F)F.c1ccc2cc(C[N+]3(CCCCCCCCC[N+]4(Cc5ccc6ccccc6c5)CCCC4)CCCC3)ccc2c1", "rule not met"],
  ["Cc1ccccc1C [1,2-dimethylbenzene] + O=S(=O)([N-]S(=O)(=O)C(F)(F)F)C(F)(F)F.O=S(=O)([N-]S(=O)(=O)C(F)(F)F)C(F)(F)F.c1ccc2cc(C[N+]3(CCCCCCCCC[N+]4(Cc5ccc6ccccc6c5)CCCC4)CCCC3)ccc2c1", "rule met"],
  ["ClC(Cl)(Cl)Cl [tetrachloromethane] + O=S(=O)([N-]S(=O)(=O)C(F)(F)F)C(F)(F)F.O=S(=O)([N-]S(=O)(=O)C(F)(F)F)C(F)(F)F.c1ccc2cc(C[N+]3(CCCCCCCCC[N+]4(Cc5ccc6ccccc6c5)CCCC4)CCCC3)ccc2c1", "rule met"],
  ["C1CCCCC1 [cyclohexane] + O=S(=O)([N-]S(=O)(=O)C(F)(F)F)C(F)(F)F.O=S(=O)([N-]S(=O)(=O)C(F)(F)F)C(F)(F)F.c1ccc2cc(C[N+]3(CCCCCCCCC[N+]4(Cc5ccc6ccccc6c5)CCCC4)CCCC3)ccc2c1", "rule met"],
  ["Cc1ccccc1 [toluene] + O=S(=O)([N-]S(=O)(=O)C(F)(F)F)C(F)(F)F.O=S(=O)([N-]S(=O)(=O)C(F)(F)F)C(F)(F)F.c1ccc2cc(C[N+]3(CCCCCCCCC[N+]4(Cc5ccc6ccccc6c5)CCCC4)CCCC3)ccc2c1", "rule met"]
]}
